Every entry's value here was drawn from patent US6245780A.

# TEST SYSTEM: 5-HT1A cloned receptor (Homo sapiens, UniProt P08908)
# Construct: expressed in transfected cells; host or cells: Chinese hamster ovary cells (5-HT1A.CHO)
# Sequence (P08908 1-422): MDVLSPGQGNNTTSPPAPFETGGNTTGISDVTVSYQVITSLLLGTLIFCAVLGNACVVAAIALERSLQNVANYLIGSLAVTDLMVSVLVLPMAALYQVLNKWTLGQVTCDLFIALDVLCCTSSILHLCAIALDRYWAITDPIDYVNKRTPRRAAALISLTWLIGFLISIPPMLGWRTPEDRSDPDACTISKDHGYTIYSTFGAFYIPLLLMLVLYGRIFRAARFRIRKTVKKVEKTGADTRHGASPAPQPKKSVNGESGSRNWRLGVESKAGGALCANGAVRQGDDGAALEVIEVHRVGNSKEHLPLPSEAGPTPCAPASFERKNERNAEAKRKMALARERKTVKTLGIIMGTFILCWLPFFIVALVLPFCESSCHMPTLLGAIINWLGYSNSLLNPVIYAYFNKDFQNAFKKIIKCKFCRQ
# TEST DETAILS: [35S]-GTPγS binding assay, 5-HT1A cloned receptor membrane fragments
# Format: biochemical
# CONDITIONS: maximum agonist response defined by excess 8-OH-DPAT; value in parentheses; read-out: GTPgS % EMax
Below, each entry is listed with its recorded Emax.
Answer in %, number only, no unit symbol.

Use these answered entries as a reference point.
[[record]]
line_notation = "COc1ccc2c(c1)CCN([C@H]1CC[C@H](c3c[nH]c4ccc(C#N)cc43)CC1)C2"
experimental_result = 0

[[record]]
line_notation = "COc1cccc2c1CCN([C@H]1CC[C@@H](c3c[nH]c4ccc(C#N)cc43)CC1)C2"
experimental_result = 12

[[record]]
line_notation = "COc1cccc2c1CCN(CCCc1c[nH]c3ccc(F)cc13)C2"
experimental_result = 23


Ask | Fill blank: measured Emax of the compound "COc1cccc2c1CCN([C@H]1CC[C@H](c3c[nH]c4ccc(C#N)cc43)CC1)C2" is ____.
Reply | 33

Ask | Continue with "Fc1ccc2[nH]cc(CCCN3CCc4ccccc4C3)c2c1"
Reply | 13

Ask | Continue with "COc1ccc2c(c1)CCN(CCCc1c[nH]c3ccc(F)cc13)C2"
Reply | 100
